# Procedure Details: Plasma pharmacokinetics of atogepant
# Type: in vivo, human
# Experimental Setup: male, human, plasma, po, 50 mg
Reported Endpoint: Cmax (ng/mL)
Numbers only, in ng/mL.

What value of measured Cmax is listed for `C[C@@H]1[C@H](c2c(F)ccc(F)c2F)C[C@H](NC(=O)c2cnc3c(c2)C[C@@]2(C3)C(=O)Nc3ncccc32)C(=O)N1CC(F)(F)F` ?
367
